Experiment: viability loss in pontine glioma line – cell-based, SU-DIPG-XIII, MIPE4.0, CellTiter-Glo, qHTS, dose response (AID 1347061);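 also: cells exposed to compound for 48 hours before readout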
Conditions: CellTiter-Glo ATP luminescence
Inconclusive results are not listed. The source made the active and inactive calls. The limit is not given here; nearly all actives have AC50 up to about 37 µM.
Possible outcomes: t = active, f = inactive

INSERT INTO assay_data (compound, category) VALUES
  ('CCOC(=O)C1=C(C)NC2=C(C(=O)CC(C)(C)C2)C1c1ccc(-c2ccccc2)cc1 (centres undefined)', 'f'),
  ('O=c1c(-c2ccc(O)cc2)coc2cc(OC3O[C@H](CO)[C@@H](O)[C@H](O)[C@H]3O)cc(O)c12 (some centres undefined)', 't'),
  ('COc1c(C)cnc(Cn2cnc3c(Cl)nc(N)nc32)c1C', 't'),
  ('COc1cc2c(cc1OC)C1CC(=O)C(CC(C)C)CN1CC2 (centres undefined)', 'f'),
  ('Cc1c(CN2CCN(C(=O)[C@H](C)O)CC2)sc2c(N3CCOCC3)nc(-c3cnc(N)nc3)nc12', 't'),
  ('O=C(OCC#CCSc1nnc(-c2cccc3ccccc23)o1)c1cc2ccccc2s1', 'f'),
  ('Cc1c(NC(=O)c2ccc(C(C)(C)C)cc2)cccc1-c1cn(C)c(=O)c(Nc2ccc(C(=O)N3CCOCC3)cc2)n1', 'f'),
  ('COc1cccc2c(NCc3ccccc3)nc(-n3c(N)nc4ccccc43)nc12', 'f'),
  ('c1cc(OCCN2CCCCC2)cc(-c2n[nH]c3ccc(-c4ncn[nH]4)cc23)c1', 'f'),
  ('CC(C)(Cc1ccc2ccccc2c1)NC[C@@H](O)COc1cccc(Cl)c1C#N', 'f'),
  ('CC(C)NC[C@@H](C(=O)N1CCN(c2ncnc3c2[C@H](C)C[C@H]3O)CC1)c1ccc(Cl)cc1', 't'),
  ('O=C(Nc1cc2cc[nH]c2cn1)c1ccccc1', 't'),
  ('Nc1nc(-c2nn(Cc3ccccc3F)c3ncccc23)nc(N)c1N1CCOCC1', 'f'),
  ('c1nc2nc(Nc3ccc(N4CCOCC4)cc3)nc(NC3CCCCC3)c2[nH]1', 't'),
  ('NC1(C(=O)N[C@@H](CCO)c2ccc(Cl)cc2)CCN(c2ncnc3[nH]ccc23)CC1', 't'),
  ('Cc1cnc(-c2cnc(NCCNc3ccc(C#N)cn3)nc2-c2ccc(Cl)cc2Cl)[nH]1', 'f'),
  ('COc1cc(C(C)C)c2c(c1)S(=O)(=O)N(COc1cc(=O)n3cccc(OCCN4CCCCC4)c3n1)C2=O', 'f'),
  ('Nc1cccc(S(=O)(=O)N2CCCN(S(=O)(=O)c3ccc4c(c3)OCCO4)CC2)c1', 'f'),
  ('CCCn1c(=O)c2[nH]c(C34CC5CC3C[C@@H](C5)C4)nc2n(CCC)c1=O', 'f'),
  ('Cn1cc(-c2ccc3nnc(Sc4ccc5ncccc5c4)n3n2)cn1', 'f'),
  ('OCc1ccc(-c2nn(Cc3ccccc3)c3ccccc23)o1', 'f'),
  ('COc1cc2ncnc(Nc3cccc(Br)c3)c2cc1OC', 'f'),
  ('C=CC(=O)Nc1cccc(Oc2nc(Nc3ccc(N4CCN(C)CC4)cc3)ncc2Cl)c1', 't'),
  ('CN[C@@H](C)C(=O)N[C@H]1CCCC[C@H]2CC[C@@H](C(=O)N[C@@H](c3ccccc3)c3cn(CCCCc4ccc(CCCCn5cc([C@@H](NC(=O)[C@@H]6CC[C@@H]7CCCC[C@H](NC(=O)[C@H](C)NC)C(=O)N76)c6ccccc6)nn5)cc4)nn3)N2C1=O', 'f');
